target: LXRβ (Homo sapiens (Human)); assay: In vitro assay LXRβ: PathHunter NHR CHO cells, LXRβ / Steroid Receptor Co-activator Peptide enzyme fragment complementation; assay type: cell-based; settings: PathHunter NHR CHO cells, full-length human LXRβ and SRCP, chemiluminescent signal; read-out: LXRβ PPI
Sequence (P55055 whole entry, the tested form may be a part): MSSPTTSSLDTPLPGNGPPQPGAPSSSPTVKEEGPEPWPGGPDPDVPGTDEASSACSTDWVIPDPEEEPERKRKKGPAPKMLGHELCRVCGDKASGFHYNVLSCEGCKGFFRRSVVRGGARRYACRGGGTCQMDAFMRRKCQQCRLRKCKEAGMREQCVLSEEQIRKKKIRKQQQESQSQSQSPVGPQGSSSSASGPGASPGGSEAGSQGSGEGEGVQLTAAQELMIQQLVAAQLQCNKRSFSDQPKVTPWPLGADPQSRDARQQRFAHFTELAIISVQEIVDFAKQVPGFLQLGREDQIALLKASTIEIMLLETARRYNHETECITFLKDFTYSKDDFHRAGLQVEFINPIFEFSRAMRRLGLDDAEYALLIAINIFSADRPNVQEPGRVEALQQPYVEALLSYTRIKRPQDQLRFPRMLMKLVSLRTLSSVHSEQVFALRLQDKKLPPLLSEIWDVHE
Quantity name: EC50

The cases that follow already have their EC50 on record.
[[record]]
smiles_repr = "C[C@H](CCC(=O)N(C)c1ccncc1)[C@H]1CC[C@H]2[C@@H]3CC=C4C[C@@H](O)CC[C@]4(C)[C@H]3CC[C@]12C"
quantity_name = "EC50"
recorded_value = "> 10 µM"

[[record]]
smiles_repr = "C[C@H](CCC(=O)N1CCN(C(=O)N(C)CC2CC2)C[C@@H]1C)[C@H]1CC[C@H]2[C@@H]3CC=C4C[C@@H](O)CC[C@]4(C)[C@H]3CC[C@]12C"
quantity_name = "EC50"
recorded_value = "> 10 µM"


q: # input molecule: COC1CCN(C(=O)CC[C@@H](C)[C@H]2CC[C@H]3[C@@H]4CC=C5C[C@@H](O)CC[C@]5(C)[C@H]4CC[C@]23C)CC1 ; wanted: its EC50
a: 0.25 to 1 µM

Value source: patent US20230340011A1
